target: EP2 (Homo sapiens, UniProt P43116); experiment: EP2 binding study; details: read-out: EP2 Data (EC50 in nM) Ki
Sequence (P43116 whole entry): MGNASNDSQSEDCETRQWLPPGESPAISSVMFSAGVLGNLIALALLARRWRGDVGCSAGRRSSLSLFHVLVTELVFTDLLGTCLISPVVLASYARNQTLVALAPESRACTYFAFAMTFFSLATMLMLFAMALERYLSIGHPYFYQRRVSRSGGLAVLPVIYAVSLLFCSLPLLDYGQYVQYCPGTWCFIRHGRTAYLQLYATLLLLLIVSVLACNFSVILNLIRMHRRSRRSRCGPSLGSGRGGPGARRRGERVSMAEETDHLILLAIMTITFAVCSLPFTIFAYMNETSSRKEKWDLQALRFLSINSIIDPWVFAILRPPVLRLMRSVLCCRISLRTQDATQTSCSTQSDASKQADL
Response field class: enum, chosen by comparing Ki against low-valued (below 100 nM), mid-valued (100 nM to below 700 nM), high-valued (700 nM or more)

Compound	Class Label
O=C(O)c1ccc(CC2Cc3c(cccc3-c3ccc(C(F)(F)F)cc3)C2=O)cc1 (centres unmarked)	mid-valued
O=C(O)c1ccc(CC2Cc3c(cccc3-c3ccc4ccccc4c3)C2=O)cc1 (centres unmarked)	low-valued
O=C(O)c1ccc(CC2Cc3c(cccc3-c3cccc(Cl)c3)C2=O)s1 (centres unmarked)	mid-valued
O=C(O)c1ccc(CC2Cc3c(cccc3-c3cccc(C(F)(F)F)c3)C2=O)s1 (centres unmarked)	mid-valued
O=C(O)c1cc(CC2Cc3c(cccc3-c3cccc(C(F)(F)F)c3)C2=O)cs1 (centres unmarked)	mid-valued
O=C(O)c1ccc(CC2Cc3c(cccc3-c3ccccc3C(F)(F)F)C2=O)cc1 (centres unmarked)	high-valued
COc1ccc(-c2cccc(C(F)(F)F)c2)c2c1C(=O)C(Cc1ccc(C(=O)O)cc1)C2 (centres unmarked)	high-valued
O=C(O)c1ccc(CC2Cc3c(cccc3-c3ccccc3)C2=O)cc1 (centres unmarked)	high-valued
O=C(O)c1ccc(CC2CCc3c(cccc3-c3cccc(C(F)(F)F)c3)C2=O)s1 (centres unmarked)	high-valued
COc1cc(OC)cc(-c2cccc3c2CC(Cc2ccc(C(=O)O)cc2)C3=O)c1 (centres unmarked)	mid-valued
COc1cccc(-c2cccc3c2CC(Cc2ccc(C(=O)O)cc2)C3=O)c1 (centres unmarked)	mid-valued
COc1cc(-c2cccc3c2CC(Cc2ccc(C(=O)O)cc2)C3=O)cc(C(F)(F)F)c1 (centres unmarked)	low-valued
O=C(O)c1ccc(CC2Cc3c(cccc3-c3ccc(Cl)c(C(F)(F)F)c3)C2=O)cc1 (centres unmarked)	low-valued
O=C(O)c1ccc(CC2Cc3c(cccc3-c3cccc(Cl)c3)C2=O)cc1 (centres unmarked)	mid-valued
O=C(O)c1ccc(CC2Cc3c(cccc3-c3cc(C(F)(F)F)cc(C(F)(F)F)c3)C2=O)cc1 (centres unmarked)	low-valued
O=C(O)c1ccc(CC2Cc3c(cccc3-c3cccc4ccccc34)C2=O)cc1 (centres unmarked)	high-valued
O=C(O)c1cccc(CC2Cc3c(cccc3-c3cccc(C(F)(F)F)c3)C2=O)c1 (centres unmarked)	high-valued

* * *

biological target: EP4 (Homo sapiens, UniProt P35408); experiment: EP4 cAMP activity study; assay type: cell-based
Sequence (P35408 whole entry): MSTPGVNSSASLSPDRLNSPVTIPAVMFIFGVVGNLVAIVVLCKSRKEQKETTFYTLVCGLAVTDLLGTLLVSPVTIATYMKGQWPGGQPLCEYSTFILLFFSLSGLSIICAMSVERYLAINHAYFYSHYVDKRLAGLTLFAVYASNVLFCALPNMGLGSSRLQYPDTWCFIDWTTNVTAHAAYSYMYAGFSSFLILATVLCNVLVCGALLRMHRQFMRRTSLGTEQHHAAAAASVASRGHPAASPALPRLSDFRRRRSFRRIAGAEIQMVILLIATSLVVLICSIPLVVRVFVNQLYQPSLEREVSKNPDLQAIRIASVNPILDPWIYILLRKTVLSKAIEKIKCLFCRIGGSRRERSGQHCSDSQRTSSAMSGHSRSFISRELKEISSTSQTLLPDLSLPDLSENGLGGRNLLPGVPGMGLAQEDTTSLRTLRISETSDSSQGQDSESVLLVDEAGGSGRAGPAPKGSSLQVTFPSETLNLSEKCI
The label is satisfied for EC50 below 1000 nM and not satisfied for EC50 equal to or exceeding 1000 nM.

Molecule	Class Label
O=C(O)c1ccc(CC2CCc3c(cccc3-c3cccc(C(F)(F)F)c3)C2=O)s1 (stereo not drawn) [Example 14]	satisfied
COc1cc(-c2cccc3c2CC(Cc2ccc(C(=O)O)cc2)C3=O)cc(C(F)(F)F)c1 (stereo not drawn) [Example 8]	not satisfied
O=C(O)c1cccc(CC2Cc3c(cccc3-c3cccc(C(F)(F)F)c3)C2=O)c1 (stereo not drawn) [Example 19]	not satisfied
COc1cccc(-c2cccc3c2CC(Cc2ccc(C(=O)O)cc2)C3=O)c1 (stereo not drawn) [Example 11]	satisfied
O=C(O)c1ccc(CC2CCc3c(cccc3-c3cccc(C(F)(F)F)c3)C2=O)cc1 (stereo not drawn) [Example 1]	satisfied
COc1cc(OC)cc(-c2cccc3c2CC(Cc2ccc(C(=O)O)cc2)C3=O)c1 (stereo not drawn) [Example 21]	satisfied
O=C(O)c1ccc(CC2Cc3c(cccc3-c3cccc(C(F)(F)F)c3)C2=O)s1 (stereo not drawn) [Example 15]	satisfied
O=C(O)c1ccc(CC2Cc3c(cccc3-c3cccc(C(F)(F)F)c3)C2=O)cc1 (stereo not drawn) [Example 2]	satisfied
O=C(O)c1ccc(CC2Cc3c(cccc3-c3ccc(Cl)c(C(F)(F)F)c3)C2=O)cc1 (stereo not drawn) [Example 10]	not satisfied
O=C(O)c1ccc(CC2Cc3c(cccc3-c3cccc(Cl)c3)C2=O)s1 (stereo not drawn) [Example 16]	satisfied
O=C(O)c1ccc(CC2Cc3c(cccc3-c3cc(C(F)(F)F)cc(C(F)(F)F)c3)C2=O)cc1 (stereo not drawn) [Example 9]	not satisfied
COc1ccc(-c2cccc(C(F)(F)F)c2)c2c1C(=O)C(Cc1ccc(C(=O)O)cc1)C2 (stereo not drawn) [Example 20]	not satisfied
Cc1cccc(-c2cccc3c2CC(Cc2ccc(C(=O)O)cc2)C3=O)c1 (stereo not drawn) [Example 12]	not satisfied
O=C(O)c1ccc(CC2Cc3c(cccc3-c3cccc4ccccc34)C2=O)cc1 (stereo not drawn) [Example 4]	not satisfied
O=C(O)c1ccc(CC2Cc3c(cccc3-c3ccccc3C(F)(F)F)C2=O)cc1 (stereo not drawn) [Example 7]	not satisfied
O=C(O)c1ccc(CC2Cc3c(cccc3-c3ccccc3)C2=O)cc1 (stereo not drawn) [Example 13]	not satisfied
O=C(O)c1cc(CC2Cc3c(cccc3-c3cccc(C(F)(F)F)c3)C2=O)cs1 (stereo not drawn) [Example 17]	not satisfied
O=C(O)c1ccc(CC2Cc3c(cccc3-c3ccc4ccccc4c3)C2=O)cc1 (stereo not drawn) [Example 5]	not satisfied
O=C(O)c1ccc(CC2Cc3c(cccc3-c3ccc(C(F)(F)F)cc3)C2=O)cc1 (stereo not drawn) [Example 6]	not satisfied
O=C(O)c1ccc(CC2Cc3c(cccc3-c3cccc(Cl)c3)C2=O)cc1 (stereo not drawn) [Example 3]	not satisfied
O=C(O)c1csc(CC2Cc3c(cccc3-c3cccc(C(F)(F)F)c3)C2=O)c1 (stereo not drawn) [Example 18]	not satisfied

* * *

target: UniProtKB P35408; test: EP4 binding study; conditions: read-out: EP4 data (EC50 in nM) KI
Listing of entries alongside the reported Ki.

Compound	System Tested	Ki
O=C(O)c1ccc(CC2Cc3c(cccc3-c3cccc(C(F)(F)F)c3)C2=O)s1 (centres unmarked)	UniProtKB P35408	137 nM
O=C(O)c1ccc(CC2Cc3c(cccc3-c3ccccc3C(F)(F)F)C2=O)cc1 (centres unmarked)	UniProtKB P35408	7090 nM
COc1cccc(-c2cccc3c2CC(Cc2ccc(C(=O)O)cc2)C3=O)c1 (centres unmarked)	UniProtKB P35408	525 nM
O=C(O)c1cccc(CC2Cc3c(cccc3-c3cccc(C(F)(F)F)c3)C2=O)c1 (centres unmarked)	UniProtKB P35408	2740 nM
O=C(O)c1ccc(CC2Cc3c(cccc3-c3cccc(C(F)(F)F)c3)C2=O)cc1 (centres unmarked)	UniProtKB P35408	18 nM
Cc1cccc(-c2cccc3c2CC(Cc2ccc(C(=O)O)cc2)C3=O)c1 (centres unmarked)	UniProtKB P35408	610 nM
O=C(O)c1ccc(CC2Cc3c(cccc3-c3ccccc3)C2=O)cc1 (centres unmarked)	UniProtKB P35408	1010 nM
COc1ccc(-c2cccc(C(F)(F)F)c2)c2c1C(=O)C(Cc1ccc(C(=O)O)cc1)C2 (centres unmarked)	UniProtKB P35408	954 nM

* * *

target: EP2 (Homo sapiens); experiment: EP2 cAMP activity study; assay type: cell-based
The label is met for EC50 below 10 nM and not met for EC50 equal to or exceeding 10 nM.

Molecule	Class Label
O=C(O)c1ccc(CC2Cc3c(cccc3-c3cccc(Cl)c3)C2=O)s1 (centres unmarked) [Example 16]	not met
O=C(O)c1csc(CC2Cc3c(cccc3-c3cccc(C(F)(F)F)c3)C2=O)c1 (centres unmarked) [Example 18]	not met
O=C(O)c1ccc(CC2CCc3c(cccc3-c3cccc(C(F)(F)F)c3)C2=O)s1 (centres unmarked) [Example 14]	not met
COc1cc(OC)cc(-c2cccc3c2CC(Cc2ccc(C(=O)O)cc2)C3=O)c1 (centres unmarked) [Example 21]	not met
O=C(O)c1cc(CC2Cc3c(cccc3-c3cccc(C(F)(F)F)c3)C2=O)cs1 (centres unmarked) [Example 17]	not met
O=C(O)c1ccc(CC2Cc3c(cccc3-c3ccc4ccccc4c3)C2=O)cc1 (centres unmarked) [Example 5]	not met
O=C(O)c1ccc(CC2Cc3c(cccc3-c3cccc(C(F)(F)F)c3)C2=O)s1 (centres unmarked) [Example 15]	not met
O=C(O)c1ccc(CC2Cc3c(cccc3-c3cc(C(F)(F)F)cc(C(F)(F)F)c3)C2=O)cc1 (centres unmarked) [Example 9]	met
Cc1cccc(-c2cccc3c2CC(Cc2ccc(C(=O)O)cc2)C3=O)c1 (centres unmarked) [Example 12]	not met
O=C(O)c1ccc(CC2Cc3c(cccc3-c3cccc(Cl)c3)C2=O)cc1 (centres unmarked) [Example 3]	not met
O=C(O)c1ccc(CC2CCc3c(cccc3-c3cccc(C(F)(F)F)c3)C2=O)cc1 (centres unmarked) [Example 1]	met
COc1cc(-c2cccc3c2CC(Cc2ccc(C(=O)O)cc2)C3=O)cc(C(F)(F)F)c1 (centres unmarked) [Example 8]	not met
O=C(O)c1ccc(CC2Cc3c(cccc3-c3cccc(C(F)(F)F)c3)C2=O)cc1 (centres unmarked) [Example 2]	met
O=C(O)c1ccc(CC2Cc3c(cccc3-c3ccc(Cl)c(C(F)(F)F)c3)C2=O)cc1 (centres unmarked) [Example 10]	met

* * *

Biological target: EP4 (Homo sapiens, UniProt P35408)
Assay: EP4 binding study
Conditions: read-out: EP4 data (EC50 in nM) KI
Description: Data from running binding and activity studies on the compounds of the invention were carried out as described in U.S. Pat. No. 7,427,685, the contents of which are incorporated herein by reference.

Molecule	Value Unit	Ki
O=C(O)c1ccc(CC2Cc3c(cccc3-c3cc(C(F)(F)F)cc(C(F)(F)F)c3)C2=O)cc1 (centres unmarked)	nM	1780
O=C(O)c1ccc(CC2Cc3c(cccc3-c3ccc(C(F)(F)F)cc3)C2=O)cc1 (centres unmarked)	nM	4450
O=C(O)c1csc(CC2Cc3c(cccc3-c3cccc(C(F)(F)F)c3)C2=O)c1 (centres unmarked)	nM	5
O=C(O)c1ccc(CC2Cc3c(cccc3-c3cccc4ccccc34)C2=O)cc1 (centres unmarked)	nM	1280
O=C(O)c1ccc(CC2CCc3c(cccc3-c3cccc(C(F)(F)F)c3)C2=O)cc1 (centres unmarked)	nM	149
